Biological target: DDX39B_C87 (Homo sapiens, UniProt Q13838)
Construct: endogenous in cells; host or cells: 22Rv1
Sequence (Q13838 whole entry): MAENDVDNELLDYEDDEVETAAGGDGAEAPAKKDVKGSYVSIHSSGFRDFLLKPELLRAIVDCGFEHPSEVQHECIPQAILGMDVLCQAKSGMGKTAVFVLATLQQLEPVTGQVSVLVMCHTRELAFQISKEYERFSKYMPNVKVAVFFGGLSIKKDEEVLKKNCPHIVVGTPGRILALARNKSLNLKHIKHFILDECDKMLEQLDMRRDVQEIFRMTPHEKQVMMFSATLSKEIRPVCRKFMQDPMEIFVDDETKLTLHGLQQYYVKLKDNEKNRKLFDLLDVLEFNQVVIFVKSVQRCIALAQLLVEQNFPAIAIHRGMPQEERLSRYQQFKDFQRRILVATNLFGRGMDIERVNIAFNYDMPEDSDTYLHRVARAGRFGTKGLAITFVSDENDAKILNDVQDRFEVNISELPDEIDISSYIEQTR
Experiment: IA-DTB cysteine engagement
Assay type: binding
Details: 22Rv1 cells, 20 μM probe, 1 h, relative to DMSO
Experimental: Sample preparation: Cells (adherent: 15 cm dishes, suspension: 2 million cells/mL) were treated with electrophilic probes in situ for indicated times and concentrations, washed with ice-cold PBS, and flash frozen in liquid nitrogen. […] Whole cell lysates protein content was measured using a standard DC protein assay (Bio-Rad) and 500 μL (2 mg/mL protein content) were treated with 5 μL of 10 mM 1A-DTB (in DMSO) for 1 h at ambient temperature with occasional vortexing. […]
Metric: % engagement DDX39B_C87 (%)
Your answer should be a plain number; it is taken to be in %.

Examples with their reported % engagement DDX39B_C87 follow.
C=CC(=O)N1C[C@@H](c2ccc(Br)cc2)[C@H]1C(=O)Nc1cccc2cccnc12 ... 44.5
C=CC(=O)N1C[C@H](c2ccc(Br)cc2)[C@H]1C(=O)Nc1cccc2cccnc12 [MY-3A] ... 23.5
C=CC(=O)N1C[C@H](c2ccc(Br)cc2)[C@H]1C(=O)Nc1cccc2cccnc12 [MY-3B] ... 67.5

Query: Tell me the measured % engagement DDX39B_C87 of C=CC(=O)N1C[C@H](c2ccc(Br)cc2)[C@@H]1C(=O)Nc1cccc2cccnc12 , please.
Response: 37

====

target: HSD11B2_C264 (Homo sapiens, UniProt P80365); construct: endogenous in cells; host or cells: 22Rv1; experiment: IA-DTB cysteine engagement; assay type: binding; settings: 22Rv1 cells, 20 μM probe, 1 h, relative to DMSO
Sequence (P80365 whole entry): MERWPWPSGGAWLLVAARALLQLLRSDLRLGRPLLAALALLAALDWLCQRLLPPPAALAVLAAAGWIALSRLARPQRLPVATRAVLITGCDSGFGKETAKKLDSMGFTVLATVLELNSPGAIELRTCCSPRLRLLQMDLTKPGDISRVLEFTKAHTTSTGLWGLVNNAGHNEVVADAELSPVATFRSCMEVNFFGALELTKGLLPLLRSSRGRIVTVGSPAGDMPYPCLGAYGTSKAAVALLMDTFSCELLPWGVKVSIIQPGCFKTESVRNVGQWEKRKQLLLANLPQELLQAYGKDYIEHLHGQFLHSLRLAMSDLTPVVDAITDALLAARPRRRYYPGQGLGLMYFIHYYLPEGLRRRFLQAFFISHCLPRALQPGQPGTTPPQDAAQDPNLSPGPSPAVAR
Below: a set of entries, each annotated with reported % engagement HSD11B2_C264.
Your answer should be a plain number; it is taken to be in %.

C=CC(=O)N1C[C@H](c2ccc(Br)cc2)[C@H]1C(=O)Nc1cccc2cccnc12 [MY-3B] ... 90.25
C=CC(=O)N1C[C@@H](c2ccc(Br)cc2)[C@H]1C(=O)Nc1cccc2cccnc12 ... 30.5
C=CC(=O)N1C[C@H](c2ccc(Br)cc2)[C@@H]1C(=O)Nc1cccc2cccnc12 ... 22

# evaluate next
Query: Tell me the measured % engagement HSD11B2_C264 of C=CC(=O)N1C[C@H](c2ccc(Br)cc2)[C@H]1C(=O)Nc1cccc2cccnc12 [MY-3A] , please.
Response: 23.5

====

biological target: YES1_C287 (Homo sapiens); construct: endogenous in cells; host or cells: 22Rv1; assay: IA-DTB cysteine engagement; type: binding; details: 22Rv1 cells, 20 μM probe, 1 h, relative to DMSO
Sequence (P07947 whole entry): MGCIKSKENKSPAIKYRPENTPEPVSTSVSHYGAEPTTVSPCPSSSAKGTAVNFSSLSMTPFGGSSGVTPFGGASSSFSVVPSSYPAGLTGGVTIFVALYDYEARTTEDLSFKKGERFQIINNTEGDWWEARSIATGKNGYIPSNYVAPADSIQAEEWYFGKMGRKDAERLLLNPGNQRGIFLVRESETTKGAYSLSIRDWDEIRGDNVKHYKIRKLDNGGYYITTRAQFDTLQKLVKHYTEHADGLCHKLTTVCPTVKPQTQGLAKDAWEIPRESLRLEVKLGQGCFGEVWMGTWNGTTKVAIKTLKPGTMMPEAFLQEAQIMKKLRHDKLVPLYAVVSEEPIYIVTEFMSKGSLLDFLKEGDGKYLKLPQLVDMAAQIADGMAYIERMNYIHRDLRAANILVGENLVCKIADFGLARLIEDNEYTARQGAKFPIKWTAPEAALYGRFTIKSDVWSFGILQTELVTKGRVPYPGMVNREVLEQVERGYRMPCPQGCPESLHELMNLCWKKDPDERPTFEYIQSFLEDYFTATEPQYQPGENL
Metric: % engagement YES1_C287 (%)
Your answer should be a plain number; it is taken to be in %.

Examples with their reported % engagement YES1_C287 follow.
C=CC(=O)N1C[C@H](c2ccc(Br)cc2)[C@H]1C(=O)Nc1cccc2cccnc12 [MY-3B] ... 42.25
C=CC(=O)N1C[C@@H](c2ccc(Br)cc2)[C@H]1C(=O)Nc1cccc2cccnc12 [MY-1A] ... 5.75
C=CC(=O)N1C[C@H](c2ccc(Br)cc2)[C@@H]1C(=O)Nc1cccc2cccnc12 [MY-1B] ... 94.5

# evaluate next
Query: Tell me the measured % engagement YES1_C287 of C=CC(=O)N1C[C@H](c2ccc(Br)cc2)[C@H]1C(=O)Nc1cccc2cccnc12 [MY-3A] , please.
Response: 0.5
